Overview of reported log10(Kd) across a group of binders:
# SYSTEM: T1, human serum albumin (human, UniProt P02768 25-609)
# T1 construct: also called HSA
# ASSAY INFO: SPR, single cycle kinetics, pH 5.5
In our notation, the value equals log10 of Kd in nM.

Reported log10(Kd) for Rh46-H2 (VHH) VHH: EVQLVESGGGLVQPGGSLRLSCAASTRTFSSYIMGWFRQAPGKERELVSAISWSGRMTHYADSVKGRFTISRDNSKNTLYLQMNSLRAEDTAVYYCAADRTTAWGAPRSQYDSWGQGTLVTVS : what is it?
1.94

Reported log10(Kd) for Rh46 sdAb (VHH, also called Rh46 VHH) VHH: QVKLEESGGGLVQAGGSLRLSCTASTRTFSSYIMGWFRQAPGKERELVAAISWSGRMTHYADSVKGRFAISRDNAKNTVYLQMNVLKPEDTAIYSCAADRTTAWGAPRSQYDSWGQGTQVTVSS : what is it?
1.62

Reported log10(Kd) for R28-H3 (VHH) VHH: QVQLVESGGGLVQPGGSLRLSCAASGRTFIAYAMGWFRQAPGKEREFVAAITNFAGGTTYYADSVKGRFTISRDNSKNTLYLQMNSLRAEDTAVYYCAADRSAQTMRQVRPVLPYWGQGTLVTVSS : what is it?
1.67

Reported log10(Kd) for M79-H5 (VHH) VHH: QVQLVESGGGLVQPGGSLRLSCAASGSTFSSSSVGWYRQAPGQQRELVAAITSGGSTNTADSVKGRFTISRDNAKNTVYLQMNSLRAEDTAVYYCNVAGRNWVPISRYSPGPYWGQGTLVTVSS : what is it?
0.91

Reported log10(Kd) for R28-H4 (VHH) VHH: QVQLVESGGGLVQPGGSLRLSCAASGRTFIAYAMGWFRQAPGKEREFVAAITNFAGGTTYYADSVKGRFTISRDNAKTTLYLQMNSLRAEDTAVYYCAADRSAQTMRQVRPVLPYWGQGTLVTVSS : what is it?
1.71

Values from patent US20210253679A1
